// melting point lookup, one value per entry
quantity_name: melting point

INSERT INTO assay_data (compound, result) VALUES
  ('CCCCCOc1ccc(C(=O)Oc2cccc3ccccc23)c2ccccc12', '95 to 100 °C'),
  ('CCCCCOc1ccc([S+]([O-])c2cccc3ccccc23)c2ccccc12 (stereo not shown)', '88 to 91 °C'),
  ('CCCCCOc1ccc(S(=O)(=O)c2cccc3ccccc23)c2ccccc12', '143 to 144 °C'),
  ('CCCCCOc1ccc(S(=O)(=O)N2CCCc3ccccc32)c2ccccc12', '78 to 80 °C');

Cited source for all entries: patent US7045533B2
